# Test system: HOP-62 NSCLC
# method.description: NCI-60 one-dose screen, 48 h (100 = growth as untreated, 0 = no growth, -100 = all killed)
# condition.details: 10 µM unless noted
This is part of a sample that, as a whole, favours compounds with a hit. Of some 83,000 tested, about 20% had one in any assay.
Reported growth values for the following compounds.
Use % as the unit, but write only the number.

compound	growth / %
O=C(CCCCCCSc1nc(-c2ccccc2)cc(-c2ccc(Cl)cc2)n1)NO	-9.16
CCCCCc1nc2c(c3c1CCCC3)CCCC2	77.6
Cc1ccc2c(c1)Sc1c(ccc3ccccc13)N2	-2.75
O=C(N=c1oc2ccccc2cc1-c1cc2ccccc2[nH]1)c1ccc(Cl)cc1	63.1
O=C(c1ccccc1)N1N=C(c2ccccc2)CC1c1nnc2n(Cc3ccccc3)c(=O)c3c4c(sc3n12)CCCC4 (stereo unspecified)	98

Dear colleague, I am looking for the recorded growth of the following compound: COCCN(C(=O)c1ccc(F)cc1F)c1c(N)n(Cc2ccccc2)c(=O)[nH]c1=O 103

* * *

# Tested on: A549/ATCC NSCLC
# method.description: NCI-60 one-dose screen, 48 h
# condition.details: 10 µM unless noted
About 83,000 compounds went through this panel and 20% of them were active in at least one assay; those are over-represented in the sample as a whole. The source made the active and inactive calls. Rule for the calls: active = growth percent below 10; inactive = the rest.
Can you answer with just one of these options? 1.0 (active), 0.0 (inactive)

As a guide, the following entries are already answered.
molecule	label.class
CC1=CN2C(=O)C3C4=C(CCCC4)SC3N=C2CN1c1c(C)cccc1C (centres undefined)	0.0
COc1cc(C(=O)/C=C/c2c(-c3ccc(F)cc3)nc3sc(C)cn23)cc(OC)c1OC	0.0
CC(C)(C)c1ccc(/C=C/C(=O)Nc2ccc(O)cc2)cc1	0.0
C[C@]12CC[C@@H]3c4cc(OC(F)F)c(O)cc4CC[C@H]3[C@@H]1CC[C@@H]2OS(N)(=O)=O	0.0
CN1CCN(CC(=O)Nc2nc(-c3cccc(NS(=O)(=O)c4cccc5c(N(C)C)cccc45)c3)cs2)CC1	0.0
CC(C)CCC[C@@H](C)[C@H]1CC[C@H]2[C@@H](Nc3ccc(O)cc3)CCC[C@]12C	0.0
COc1ccc2nc(NNC(=O)c3cnccn3)c3cccn3c2c1	1.0
CC1(C)CC(=O)CC2(C1)N=C(N)Nc1nc3ccccc3n12 (centres undefined)	0.0

# fetch the recorded call for Cc1ccc(Cl)cc1NC(=O)c1cc2ccccc2cc1O here 0.0

Can you check O=C1C=C[C@]2(C[C@@H](c3cccc(C(F)(F)F)c3)O[C@@H](c3cccc(C(F)(F)F)c3)O2)O1 next? 0.0

Can you check FC(F)(F)c1cc(Nc2ccc3cc(OCCCN4CCOCC4)ccc3n2)ccc1Cl next? 0.0

* * *

# Tested on: SW-620 colon
# method.description: NCI-60 one-dose screen, 48 h
# condition.details: 10 µM unless noted
About 83,000 compounds went through this panel and 20% of them were active in at least one assay; those are over-represented in the sample as a whole. The source made the active and inactive calls. The calls were made as follows: active = growth percent below 10; inactive = the rest.
Can you answer with just one of these options? active, inactive

As a guide, the following entries are already answered.
molecule	label.class
CC1OC(O[C@H]2/C=C/C=C/C=C/C=C/C=C/C=C/C=C/[C@H](C)[C@@H](O)[C@@H](C)[C@H](C)OC(=O)CC(O)CC(O)CCC(O)C(O)CC(O)C[C@]3(O)C[C@H](O)C(C(=O)O)C(C2)O3)C(O)[C@H](N)C1O (some centres undefined)	active
COc1ccc(-c2nc3sccn3c2-c2cc(-c3cc(OC)c(OC)c(OC)c3)on2)cc1	inactive
Clc1cccc(Cl)c1/C=C/c1cc(/C=C/c2c(Cl)cccc2Cl)[nH]n1	inactive

In the following, a different molecule is considered.
# fetch the recorded call for CNS(=O)(=O)c1n[nH]nc1-c1cc(C(C)(C)C)c(O)c(C(C)(C)C)c1 here inactive
